Test system: SK-OV-3 ovarian
Test: NCI tumour cell line growth inhibition, 48 h
Below, each entry is listed alongside its reported TGI.

Examples with answers:
Oc1c(Cl)cc(Cl)cc1/C=N/Nc1nnc(N/N=C/c2cc(Cl)cc(Cl)c2O)c2ccccc12: > 81.7 µM
CC1=NN(C(=O)Nc2ccc(Cl)cc2)C(=O)C2CCC(=O)N12 (stereo not drawn): > 100 µM

Now consider the entry below.
Please list TGI recorded for the molecule Cc1ccc(NC(=O)CC/C(CC(=O)C(C)(C)C)=N\NC(=O)C[n+]2ccccc2)cc1C
> 100 µM

---

System: MALME-3M melanoma
Experiment: NCI tumour cell line growth inhibition, 48 h
experimental.readout: TGI

Examples with answers:
COc1cc(N2C(=O)[C@H](c3ccccc3)C2c2ccc(SC)cc2)cc(OC)c1OC (stereo partly drawn): > 100 µM
CCCCNS(=O)(=O)c1n[nH]c(=O)[nH]c1=O: > 100 µM

Now consider the entry below.
Please list TGI recorded for the compound NS(=O)(=O)c1ccc(Nc2c3ccccc3nc3c(C(=O)N4CCN(CCO)CC4)cccc23)cc1
> 100 µM
